This collection of values is drawn from PubChem BioAssay.

Test system: TRPC4 beta (transient receptor potential cation channel C4), mouse
experimental.details: activators of mouse TRPC4 channel, confirmation, cell-based, Fluo4 calcium, HEK293 TRPC4beta/mu-opioid, duplicates, 10 µM (AID 2426);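 also: percent rise of integrated ratio over buffer wells lacking compound which define 0%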
experimental.setup: Fluo4 calcium fluorescence, at 10 µM; stronger effect = higher value
Provide the recorded activation for the entries that follow.
State the answer as a number, implicitly in %.

(Q) Record lookup: for TRPC4 beta (transient receptor potential cation channel C4), mouse, what activation belongs to `Cc1onc(-c2ccccc2)c1C(=O)NNC(=S)NC(=O)c1ccc(Br)cc1` ?
(A) 263

(Q) Record lookup: for TRPC4 beta (transient receptor potential cation channel C4), mouse, what activation belongs to `C=CCn1c(CCNC(=O)C(C)(C)C)nc2ccccc21` ?
(A) 151

(Q) Record lookup: for TRPC4 beta (transient receptor potential cation channel C4), mouse, what activation belongs to `Cc1cccc(C(=O)NNC(=S)NC(=O)c2ccccc2)c1` ?
(A) 230

* * *

experimental.details: thallium flux effects in parental CHO cells, counter-screen for KCNQ1 inhibitor project, cell-based, Tl flux (AID 588366);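 also: ratio is peak minus minimum fluorescence divided by baseline fluorescence; actives read low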
experimental.setup: parental CHO-K1, FluxOR thallium flux fluorescence ratio; at 10 µM; stronger effect = lower value; zero means no signal rise above baseline
The list shows a part of the results.
attribute.measured: fluorescence ratio (Tl flux)
Give the figure by itself; no unit, no explanation.

(Q) I am curious: what fluorescence ratio (Tl flux) value has been reported for `O=C(CNCCC1=CCCCC1)Nc1ccccc1N1CCCCCC1` ?
(A) 0.402

(Q) I am curious: what fluorescence ratio (Tl flux) value has been reported for `CCc1noc(C)c1C(=O)Oc1ccc(N(C)S(=O)(=O)c2ccc(C)c(C)c2)cc1` ?
(A) 0.408

(Q) I am curious: what fluorescence ratio (Tl flux) value has been reported for `COc1ccc(Nc2ncnc3sc(-c4ccccc4)cc23)c(OC)c1` ?
(A) 0.403

(Q) I am curious: what fluorescence ratio (Tl flux) value has been reported for `Cc1cccc(Nc2ccccc2C(=O)NCc2ccco2)c1C` ?
(A) 0.394

(Q) I am curious: what fluorescence ratio (Tl flux) value has been reported for `COc1ccc(-c2csc3ncnc(N4CCN(S(=O)(=O)c5cccc(F)c5)CC4)c23)cc1` ?
(A) 0.403

(Q) I am curious: what fluorescence ratio (Tl flux) value has been reported for `CC(C)(CCl)C(=O)Nc1ccc(Sc2ccc(F)cc2)cc1` ?
(A) 0.393

* * *

experimental.details: thallium flux activation in parental CHO cells, counter-screen for KCNQ1 potentiator project (AID 493006);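 as to activation: fluorescence ratio of max minus min over baseline after K+ and Tl+ depolarization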
experimental.setup: parental CHO-K1 cells, FluxOR thallium flux, at 10 µM
Calls of active or inactive are those of the source.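 The calls were made as follows: active = duplicate-averaged activation above buffer control mean plus 5 SD of those controls; inactive = the rest.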
// allowed return values: true = active, false = inactive

(Q) Per the assay record, what outcome was assigned to `O=C(NC(=S)N1CCN(c2ccc([N+](=O)[O-])cc2Cl)CC1)c1ccco1` ?
(A) false

(Q) Per the assay record, what outcome was assigned to `O=C(NC(=S)N1CCN(C/C=C/c2ccccc2)CC1)c1ccc(F)cc1` ?
(A) true

(Q) Per the assay record, what outcome was assigned to `CCN(CC)C(=S)SCC(=O)Nc1nc(=O)c2ccccc2s1` ?
(A) false

(Q) Per the assay record, what outcome was assigned to `O=C1CN(C(=O)CSc2nc3cc(Cl)ccc3c(=O)n2Cc2ccccc2)c2ccccc2N1` ?
(A) false

(Q) Per the assay record, what outcome was assigned to `COc1ccc2nc(NC(=S)NC(=O)c3ccco3)sc2c1` ?
(A) false

(Q) Per the assay record, what outcome was assigned to `Oc1c(Br)cc(Br)cc1/C=N/c1nc2c(s1)CCCC2` ?
(A) true

(Q) Per the assay record, what outcome was assigned to `Cc1ccc2cc3cc(C(=O)NC4CC4)oc3nc2c1` ?
(A) false

(Q) Per the assay record, what outcome was assigned to `COc1cc2c(cc1OC)CN(C(=O)COc1ccccc1[N+](=O)[O-])CC2` ?
(A) false

(Q) Per the assay record, what outcome was assigned to O=C1CCC(C(=O)N2CCSCC2)CN1Cc1cccc(C(F)(F)F)c1 (stereo not drawn) ?
(A) false

(Q) Per the assay record, what outcome was assigned to COc1ccc(C(=O)CSc2nnc(NC(=O)C3CC(=O)N(c4cccc(OC)c4)C3)s2)cc1 (stereo not drawn) ?
(A) false

(Q) Per the assay record, what outcome was assigned to COc1ccc(NC(=O)C(=O)NNC(=O)C(C)Oc2ccc(Cl)cc2Cl)cc1 (stereo not drawn) ?
(A) true

(Q) Per the assay record, what outcome was assigned to `CC(=O)Nc1ccc(S(=O)(=O)N2CCC(C(=O)O)CC2)cc1` ?
(A) false

(Q) Per the assay record, what outcome was assigned to `O=C(Cn1c(C(F)(F)F)nc2ccccc21)N=Nc1c(O)[nH]c2ccc(Br)cc12` ?
(A) false

* * *

target.system: Potassium voltage-gated channel subfamily KQT member 1 (Homo sapiens) (UniProt P51787)
Sequence (P51787 whole entry, looked up): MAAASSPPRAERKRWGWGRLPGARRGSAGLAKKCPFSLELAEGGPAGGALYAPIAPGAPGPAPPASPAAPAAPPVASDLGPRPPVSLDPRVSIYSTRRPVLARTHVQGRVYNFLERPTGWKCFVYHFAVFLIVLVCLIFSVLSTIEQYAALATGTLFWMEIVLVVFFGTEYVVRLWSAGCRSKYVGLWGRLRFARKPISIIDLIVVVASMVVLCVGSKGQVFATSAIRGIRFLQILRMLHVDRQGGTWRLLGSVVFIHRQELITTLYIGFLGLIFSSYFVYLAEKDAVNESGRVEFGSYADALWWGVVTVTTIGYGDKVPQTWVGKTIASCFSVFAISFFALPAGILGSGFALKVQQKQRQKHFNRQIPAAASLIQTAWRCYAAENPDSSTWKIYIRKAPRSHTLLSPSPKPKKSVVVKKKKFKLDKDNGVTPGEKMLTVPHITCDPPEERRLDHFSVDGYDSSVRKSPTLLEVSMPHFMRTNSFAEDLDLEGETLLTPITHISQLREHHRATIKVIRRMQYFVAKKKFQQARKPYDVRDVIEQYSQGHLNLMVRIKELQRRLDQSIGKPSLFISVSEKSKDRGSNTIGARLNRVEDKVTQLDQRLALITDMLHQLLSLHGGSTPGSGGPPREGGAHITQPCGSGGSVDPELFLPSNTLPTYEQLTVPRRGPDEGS
experimental.details: KCNQ1 potassium channel potentiators, confirmation, FluxOR thallium flux, CHO cells, duplicates (AID 493007);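 as to outcome: cells depolarized by a potassium plus thallium sulfate stimulus after compound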
experimental.setup: KCNQ1 cell line, FluxOR thallium flux fluorescence, at 10 µM, % of reference activator effect, buffer zero
Active and inactive are the calls of the source.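 Rule for the calls: active = potentiation averaged over duplicate wells exceeding buffer-only control mean by more than 3 SD; inactive = the rest.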
// allowed return values: class 1 (active), class 0 (inactive)

(Q) Per the assay record, what outcome was assigned to `COc1cc(/C=N/Nc2nc(N3CCCC3)nc(N3CCCC3)n2)ccc1OCc1ccccc1F` ?
(A) class 0

(Q) Per the assay record, what outcome was assigned to COc1ccc(/C(O)=C2/C(=O)C(=O)N(CCCN(C)C)C2c2ccc(Cl)cc2)cc1OC (configuration not stated) ?
(A) class 0

(Q) Per the assay record, what outcome was assigned to Cc1c(CN2CCN(C)C(CCO)C2)[nH]c2c(Cl)cccc12 (configuration not stated) ?
(A) class 0

(Q) Per the assay record, what outcome was assigned to `CCN(CC)c1ccc(Nc2cc3n(c(=O)n2)CCc2cc(OC)c(OC)cc2-3)cc1` ?
(A) class 0

(Q) Per the assay record, what outcome was assigned to `S=c1[nH]cnc2scc(-c3ccc(Br)cc3)c12` ?
(A) class 1

(Q) Per the assay record, what outcome was assigned to `Cc1cc(NCc2ccccc2)nc2ccccc12` ?
(A) class 0

(Q) Per the assay record, what outcome was assigned to `O=S(=O)(Nc1ccccc1Cl)c1ccc(NS(=O)(=O)c2cccs2)cc1` ?
(A) class 1
